MEASUREMENT TARGET: Jak2 (UniProt O60674)
Sequence (O60674 whole entry, looked up): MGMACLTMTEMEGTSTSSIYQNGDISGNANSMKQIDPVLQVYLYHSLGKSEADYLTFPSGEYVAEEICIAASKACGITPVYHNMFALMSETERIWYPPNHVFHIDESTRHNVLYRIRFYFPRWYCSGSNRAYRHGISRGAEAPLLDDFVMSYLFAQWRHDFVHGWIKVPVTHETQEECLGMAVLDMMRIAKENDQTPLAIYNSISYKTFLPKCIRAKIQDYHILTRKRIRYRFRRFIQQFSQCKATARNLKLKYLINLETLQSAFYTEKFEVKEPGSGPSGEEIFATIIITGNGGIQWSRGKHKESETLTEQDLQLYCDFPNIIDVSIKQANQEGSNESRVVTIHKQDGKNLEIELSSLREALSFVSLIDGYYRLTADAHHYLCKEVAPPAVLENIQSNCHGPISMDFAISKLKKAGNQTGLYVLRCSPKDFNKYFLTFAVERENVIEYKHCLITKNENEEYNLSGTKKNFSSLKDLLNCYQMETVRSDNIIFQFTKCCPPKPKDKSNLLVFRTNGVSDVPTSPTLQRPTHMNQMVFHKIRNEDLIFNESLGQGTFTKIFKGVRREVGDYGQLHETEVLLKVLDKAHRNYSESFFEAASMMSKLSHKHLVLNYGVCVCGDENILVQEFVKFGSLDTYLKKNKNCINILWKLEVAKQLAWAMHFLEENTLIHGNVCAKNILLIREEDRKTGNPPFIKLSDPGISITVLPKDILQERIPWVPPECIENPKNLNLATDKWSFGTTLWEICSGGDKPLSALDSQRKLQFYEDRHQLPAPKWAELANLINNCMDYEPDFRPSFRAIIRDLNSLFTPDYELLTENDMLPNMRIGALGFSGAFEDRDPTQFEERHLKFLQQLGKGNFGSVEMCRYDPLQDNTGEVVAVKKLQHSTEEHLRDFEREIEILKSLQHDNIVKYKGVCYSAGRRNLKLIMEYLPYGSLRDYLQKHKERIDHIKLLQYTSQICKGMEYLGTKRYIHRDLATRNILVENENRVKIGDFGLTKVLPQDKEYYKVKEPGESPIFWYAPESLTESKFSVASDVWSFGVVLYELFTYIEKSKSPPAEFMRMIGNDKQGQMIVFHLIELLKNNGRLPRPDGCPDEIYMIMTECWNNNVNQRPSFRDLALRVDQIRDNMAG
TEST NAME: phosphorylation enrichment, bacterial display (enrichment ratio); higher = better substrate or ligand; peptides without Tyr show the background;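 note: 11-residue human phosphosite peptides and single-mutation variants displayed on the E. coli surface, counted by deep sequencing, each peptide's frequency after selection divided by its frequency in the unselected input library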;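 note: frequency after pTyr selection over input frequency; kinase dosed for 20-30% of maximal phosphorylation in three min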
Kind request: treat 0.8 as inclusive, so phosphorylation enrichment at 0.8 or higher is condition met, anything lower is condition not met.

Identify whether the reported phosphorylation enrichment of the following sequence is 0.8 or greater: PDSVDYRKKGF [CTSK_Y121_YF] condition not met

API: above_or_equal(metric=phosphorylation enrichment, cutoff=0.8) for item DYDHSYYFIAT [ESD_Y262_G257D] condition met

Say whether GVFSRYFTTFD [CLCA1_Y661_YF] shows phosphorylation enrichment of 0.8 or more. condition met

Reported phosphorylation enrichment at or above 0.8? FGMQLYQKFMH [GRB14_Y347_N349K_YF] condition met

Quick check: does KDHRDYKFQPR [SOX9_Y172_P170R_YF] have phosphorylation enrichment greater than or equal to 0.8? condition not met

# check: phosphorylation enrichment of ALWFIYLHTRS [ENG_Y614_S615L_YF] is greater than or equal to 0.8 condition met

Answer whether phosphorylation enrichment of DSFSSYCNAVA [SLC20A2_Y436_YF] is greater than or equal to 0.8. condition met

Test whether the sequence GKFFQYDTWNQ [IGF2_Y116_K120N] records phosphorylation enrichment of 0.8 or higher. condition met

Given NIKKEYAKMVQ [PMS2_Y181] , state whether its phosphorylation enrichment is at least 0.8. condition not met

Reported phosphorylation enrichment at or above 0.8? KELAPYDENCF [RPS19_Y48_W52C] condition met

Reported phosphorylation enrichment at or above 0.8? PQQLWYTHKKK [UBTF_Y207_E210K] condition met

Entry FFDANCDGKEF [MAPRE2_Y162_Y162C_YF] : is its phosphorylation enrichment no less than 0.8? condition met

# check: phosphorylation enrichment of QLAPQYTYTQG [FLNA_Y1761_A1764T] is greater than or equal to 0.8 condition not met

Does DNAFQYMLTDR [MYH7_Y164_YF] have a reported phosphorylation enrichment of at least 0.8? condition not met

Threshold query (phosphorylation enrichment >= 0.8) on RPASQYPHQVP [ADAM12_Y895_P893S] condition not met

Could you please find out whether AEQDCYHGAIP [FER_Y461_W460C] has phosphorylation enrichment that meets 0.8 or exceeds it? condition not met

Given IIRYNYLLDVL [FGFR4_Y237_S232I] , state whether its phosphorylation enrichment is at least 0.8. condition met

Test whether the sequence APGDAYGDAGY [SYP_Y250] records phosphorylation enrichment of 0.8 or higher. condition not met

Does PLAVPYLDKPP [JMJD7_Y31] have a reported phosphorylation enrichment of at least 0.8? condition not met

Please check the record TRVMEYISCLD [CLTCL1_Y1043_R1046C] and state if its phosphorylation enrichment is at or above 0.8. condition met

Check the entry TLNHQYDYTFH [CSNK1A1_Y292_D297H] : does phosphorylation enrichment equal or exceed 0.8? condition not met

Quick check, phosphorylation enrichment >= 0.8? VFDMLYQVANL [USP24_Y1087_L1089V] condition met

Has QDLFLYQTHSE [PKHD1_Y255] a recorded phosphorylation enrichment greater than or equal to 0.8? condition met

Could you verify whether the entry NSRFTCKLEVK [USH2A_Y3747_Y3747C_YF] shows phosphorylation enrichment of no less than 0.8? condition met

# bool: phosphorylation enrichment of PDDPSYSLVDD [PSTPIP2_Y323_N322S] >= 0.8 condition met
